Each entry below lists one item and its recorded Mean % WT Binding value.
Molecular target: human CD33 V25A (human, UniProt P20138 18-364)
Sequence (P20138 18-364 V25A limits assumed): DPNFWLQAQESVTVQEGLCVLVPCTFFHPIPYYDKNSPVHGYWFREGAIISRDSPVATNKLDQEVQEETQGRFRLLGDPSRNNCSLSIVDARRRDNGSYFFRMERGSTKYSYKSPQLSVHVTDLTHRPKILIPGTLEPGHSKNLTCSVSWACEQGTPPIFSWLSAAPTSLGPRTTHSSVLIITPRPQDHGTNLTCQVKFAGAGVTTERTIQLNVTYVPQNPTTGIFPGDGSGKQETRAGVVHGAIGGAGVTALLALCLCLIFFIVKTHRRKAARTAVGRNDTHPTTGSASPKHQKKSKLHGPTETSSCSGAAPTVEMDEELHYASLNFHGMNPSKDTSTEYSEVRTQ
Experiment: alanine scan, flow cytometry;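 also: HEK293-T cells transiently expressing single-residue alanine mutants of CD33 (alanine swapped to serine), antibody binding read by fluorescence in duplicate, background-subtracted, expressed relative to wild-type CD33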
experimental readout: Mean % WT Binding (% WT)

binder | value measured
Refmab #3 (antibody, V domains shown, Full-length format is human IgG1 Fc silent (PG-LALA); The alanine scan used IgG or Fab) VH: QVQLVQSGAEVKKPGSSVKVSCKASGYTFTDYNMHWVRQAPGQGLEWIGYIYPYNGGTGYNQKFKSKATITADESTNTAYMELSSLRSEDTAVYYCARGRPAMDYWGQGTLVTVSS VL: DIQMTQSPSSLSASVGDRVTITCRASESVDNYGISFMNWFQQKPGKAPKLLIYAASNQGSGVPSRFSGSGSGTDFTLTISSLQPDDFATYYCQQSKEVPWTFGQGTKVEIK | 109
Refmab #4 (antibody, V domains shown, Full-length format is human IgG1 Fc silent (PG-LALA); The alanine scan used IgG or Fab) VH: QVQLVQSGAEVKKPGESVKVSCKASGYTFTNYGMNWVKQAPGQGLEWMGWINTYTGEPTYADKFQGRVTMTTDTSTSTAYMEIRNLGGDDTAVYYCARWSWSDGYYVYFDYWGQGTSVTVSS VL: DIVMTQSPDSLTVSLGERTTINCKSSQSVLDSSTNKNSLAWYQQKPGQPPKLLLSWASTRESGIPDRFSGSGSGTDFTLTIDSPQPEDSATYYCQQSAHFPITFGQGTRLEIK | 49.1
Refmab #1 (antibody, V domains shown, Full-length format is human IgG1 (Absolute Antibody Ab00283-10.0); The alanine scan used IgG or Fab; also called hP67.6) VH: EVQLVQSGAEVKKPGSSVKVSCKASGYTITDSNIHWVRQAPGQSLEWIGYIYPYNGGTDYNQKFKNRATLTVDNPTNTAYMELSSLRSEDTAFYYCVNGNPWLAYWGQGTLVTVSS VL: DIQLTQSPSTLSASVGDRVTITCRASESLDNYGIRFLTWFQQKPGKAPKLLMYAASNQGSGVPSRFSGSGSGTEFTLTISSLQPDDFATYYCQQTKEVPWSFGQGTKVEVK | 90.7
Refmab #2 (antibody, V domains shown, Full-length format is human IgG1 Fc silent (PG-LALA); The alanine scan used IgG or Fab) VH: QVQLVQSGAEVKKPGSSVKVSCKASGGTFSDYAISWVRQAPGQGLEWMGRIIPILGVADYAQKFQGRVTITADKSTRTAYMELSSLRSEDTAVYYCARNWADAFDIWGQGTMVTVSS VL: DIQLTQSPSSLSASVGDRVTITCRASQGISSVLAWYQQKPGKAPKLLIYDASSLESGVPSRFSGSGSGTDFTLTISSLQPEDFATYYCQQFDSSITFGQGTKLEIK | 87.1
